- assay name: Particle sizing assay of in vitro formulations (dynamic light scattering, DynaPro plate reader)
- Assay type: physicochemical
- run conditions: in vitro formulation a: Cationic lipid/Example 56/DSPC/Chol 45/10/15/30 wt %, Lipid:siRNA 25:1
Entries annotated with measured Size
Kindly answer with a numeric value in nm, unit omitted.

Below, each entry is followed by its recorded Size result.
* CCCCC/C=C\C/C=C\CCCCCCCCOCC(COCCCCCCCC/C=C\C/C=C\CCCCC)NCc1cccnc1N1CCCC1 | 134
* CCCCC/C=C\C/C=C\CCCCCCCCOCC(COCCCCCCCC/C=C\C/C=C\CCCCC)N(C)C | 134
* CCCCC/C=C\C/C=C\CCCCCCCCOCC(COCCCCCCCC/C=C\C/C=C\CCCCC)N1CCCC1 | 170
* CCCCC/C=C\C/C=C\CCCCCCCCOCC(N)COCCCCCCCC/C=C\C/C=C\CCCCC | 132
* CCCCC/C=C\C/C=C\CCCCCCCC(=O)OCC(COC(=O)CCCCCCC/C=C\C/C=C\CCCCC)N1CCN(C)CC1 | 117.2
* CCCCC/C=C\C/C=C\CCCCCCCCOCC(COCCCCCCCC/C=C\C/C=C\CCCCC)N(C)Cc1cccc(CN2CCCC2)c1 | 122

Prompt line: # return recorded Size for input CCCCC/C=C\C/C=C\CCCCCCCCOCC(COCCCCCCCC/C=C\C/C=C\CCCCC)N1CCOCC1
Response line: 143

Prompt line: # return recorded Size for input CCCCC/C=C\C/C=C\CCCCCCCC(=O)OCC(COC(=O)CCCCCCC/C=C\C/C=C\CCCCC)NCCCN1CCCC1
Response line: 120.8

Values compiled from patent US20100055168A1.
